# assay info: AUC (0 to infinity) in Sprague-Dawley rat at 10 mg/kg, po
# Type: ADME, organism-based
# Design: time infinity, dose 10 mg/kg, route oral
# condition: plasma
# reported AUC(0-inf); entries follow
Kindly provide the numeric value in ng·h/mL only, without the unit symbol.

Worked examples follow.
[
  {
    "query smiles": "O=C(NC[C@@H]1OC(=O)N2c3ccc(N4CCOCC4=O)cc3OC[C@@H]12)c1ccc(Cl)s1",
    "readout": "AUC(0-inf)",
    "endpoint unit": "ng·h/mL",
    "reading": 33000
  },
  {
    "query smiles": "O=C(NC[C@@H]1OC(=O)N2c3ccc(N4CCOCC4=O)cc3NC[C@@H]12)c1ccc(Cl)s1",
    "readout": "AUC(0-inf)",
    "endpoint unit": "ng·h/mL",
    "reading": 1350
  }
]

Continue with the next compound.
Would you mind telling me what AUC(0-inf) value was observed for "O=C(NC[C@@H]1OC(=O)N2c3ccc(N4CCOCC4=O)cc3SC[C@@H]12)c1ccc(Cl)s1" ? 1480

---

# study system: Coagulation factor X (Homo sapiens)
# Sequence (P00742 41-179 limits assumed): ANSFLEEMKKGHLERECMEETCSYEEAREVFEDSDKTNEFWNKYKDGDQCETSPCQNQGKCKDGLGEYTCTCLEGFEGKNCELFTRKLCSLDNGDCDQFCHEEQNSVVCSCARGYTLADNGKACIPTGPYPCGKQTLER
# Sequence (P00742 235-488 limits assumed): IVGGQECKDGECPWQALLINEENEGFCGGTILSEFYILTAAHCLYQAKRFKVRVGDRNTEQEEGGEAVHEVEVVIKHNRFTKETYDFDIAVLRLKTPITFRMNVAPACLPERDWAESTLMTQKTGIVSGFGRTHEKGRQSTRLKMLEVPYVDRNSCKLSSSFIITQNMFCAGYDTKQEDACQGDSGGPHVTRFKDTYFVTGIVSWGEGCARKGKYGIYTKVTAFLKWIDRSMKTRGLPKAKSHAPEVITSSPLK
Listed compounds paired with reported pIC50
A value of pIC50 is the negative decimal logarithm of a concentration given in moles per litre.

[
  {
    "query smiles": "NS(=O)(=O)c1ccccc1-c1ccc2c(c1)OC[C@H]1[C@H](CNC(=O)c3ccc(Cl)s3)OC(=O)N21",
    "pIC50": 7.22
  }
]

Now examine the next entry.
Please give the measured pIC50 for this compound: "COc1ccc(C(=O)NC[C@@H]2OC(=O)N3c4ccc(N5CCOCC5=O)cc4OC[C@@H]23)cc1" 5.32

---

# study system: UniProt P00742
readout: log10 of IC50 (log10 of the value in µM)
Please be aware that the numbers have been log10-transformed from IC50 in µM.

[
  {
    "query smiles": "CS(=O)(=O)c1ccccc1-c1ccc2c(c1)OC[C@H]1[C@H](CNC(=O)c3ccc(Cl)s3)OC(=O)N21",
    "reading": -1.42
  },
  {
    "query smiles": "O=C(NC[C@@H]1OC(=O)N2c3ccc(N4CCOCC4=O)cc3SC[C@@H]12)c1ccc(Cl)s1",
    "reading": -2.60
  },
  {
    "query smiles": "O=C(NC[C@@H]1OC(=O)N2c3ccc(N4CCCCC4=O)cc3SC[C@@H]12)c1ccc(Cl)s1",
    "reading": -2.31
  },
  {
    "query smiles": "O=C(NC[C@@H]1OC(=O)N2c3ccc(N4CCOCC4=O)cc3OC[C@@H]12)C(Cl)Cl",
    "reading": 1.72
  }
]

# ---- query compound ----
For the record "CS(=O)(=O)N1CCN(c2ccc3c(c2)OC[C@H]2[C@H](CNC(=O)c4ccc(Cl)s4)OC(=O)N32)C(=O)C1" , what value of log10 of IC50 is listed for UniProt P00742? 0.62

---

Below: a set of entries, each annotated with reported IC50.
# study system: Coagulation factor X (Homo sapiens)

[
  {
    "query smiles": "O=C(NC[C@@H]1OC(=O)N2c3ccc(N4CCOCC4=O)cc3OC[C@@H]12)c1cc2c(Cl)cccc2s1",
    "IC50": "> 100 µM"
  },
  {
    "query smiles": "O=C(NC[C@@H]1OC(=O)N2c3ccc(N4CCOCC4=O)cc3OC[C@@H]12)c1sc2cc(Cl)ccc2c1Cl",
    "IC50": "> 100 µM"
  }
]

Given the entry "O=C(CSCCCl)NC[C@@H]1OC(=O)N2c3ccc(N4CCOCC4=O)cc3OC[C@@H]12" , report its measured IC50. > 100 µM
